Catalogue of compounds with associated %Inh
test system: PIK3CG; conditions: concentration: 1 μM, replicates: in singlicate; n = 1
Value expressed in %; do not type the unit.

Solved cases below.
CC(C)N1CCC(n2cnc(-c3ccc(F)cc3)c2-c2ccnc(N)n2)CC1 [SB-223132] | 7
Cn1cc(-c2ccc3c(c2)CCN3C(=O)Cc2cccc(C(F)(F)F)c2)c2c(N)ncnc21 [GSK2606414] | 0
COc1ccc(Nc2nccc(N3CCC(NC(=O)c4cccc(NC(C)=O)c4)C3)n2)cc1 (centres unmarked) [GSK1379732] | 0
CS(=O)(=O)CCNCc1nc(-c2ccc3ncnc(Nc4ccc(OCc5cccc(F)c5)c(Cl)c4)c3c2)cs1.Cl [GW583340] | 0
Nc1nc(-c2ccc3c(N)n[nH]c3c2)cc(N2CCC[C@@H](C(=O)Nc3ccccc3)C2)n1.O=C(O)C(F)(F)F.O=C(O)C(F)(F)F [GSK2288359] | 13

GET /value?item= Cl.O=S(=O)(c1cccc(F)c1)c1ccc(Nc2ncnc3cc(Br)sc23)cc1Cl [GSK306886] &field=%Inh returns 5

GET /value?item= Clc1cc(Nc2ncnc3cc[nH]c23)ccc1OCc1ccccn1 &field=%Inh returns 4

GET /value?item= Clc1cccc(-c2nc(Nc3ccncc3)c3ccccc3n2)c1 [GW873004] &field=%Inh returns 0

GET /value?item= COc1ccc(Nc2nccc(N3CCC(NC(=O)Nc4ccc5c(c4)OCO5)C3)n2)cc1 (centres unmarked) [GSK1379745] &field=%Inh returns 0

GET /value?item= COc1ccc(NC(=O)Nc2ccc(C)c(-c3ccc(C(=O)Nc4ccncc4)cc3)c2)cc1 [GSK1398475] &field=%Inh returns 0

GET /value?item= Cc1cccc(-c2nc(Nc3ccc4[nH]nnc4c3)c3ccccc3n2)n1 [GW867587] &field=%Inh returns 0

GET /value?item= Nc1nc(-c2ccccn2)c(-c2ccnc3ccccc23)s1 [GW548057] &field=%Inh returns 10

GET /value?item= Fc1ccc(Nc2nccc(-c3c(-c4ccc(Cl)cc4)nn4ncccc34)n2)cc1F [GW829058] &field=%Inh returns 18

====

test system: EPHA6
recordedMetric: Kd

Simply: O=C(Nc1n[nH]c2nc(-c3ccco3)c(Br)cc12)c1ccc(CN2CCCC2)cc1.O=C(O)[C@H](O)[C@@H](O)C(=O)O [SB-742352] , EPHA6, Kd = > 10 µM

====

tested on: FGFR2; conditions: concentration: 1 μM, replicates: in singlicate; n = 1
Catalogue of compounds with associated %Inh
Value expressed in %; do not type the unit.

Solved cases below.
O=C(NCCCN1CCCC1=O)c1cnc(NCc2cc(Cl)ccc2Cl)nc1NC1CCNCC1 | 14
COc1cc2c(Nc3cccc(NC(=O)c4ccccc4)c3)ncnc2cc1OCCCN1CCOCC1 [GSK223810] | 11
OCCOCCn1ccc2ncnc(Nc3ccc(Oc4cccc(Cl)c4)c(Cl)c3)c21 | 0
Nc1nccc2scc(-c3ccc4c(c3)CCN4C(=O)Cc3cc(F)ccc3F)c12 [GSK2587663] | 1
Cl.Cl.c1ccc(-c2cc3ccncc3cc2OC2CCNCC2)cc1 [GSK1122999] | 0

Simply: Fc1cccc(COc2ccc(Nc3ncnc4nn5ccccc5c34)cc2Cl)c1 [GW689066] , FGFR2, %Inh = 12

Simply: O=C(Nc1n[nH]c2nc(-c3ccco3)c(Br)cc12)c1ccc(CN2CCCC2)cc1.O=C(O)[C@H](O)[C@@H](O)C(=O)O [SB-742352] , FGFR2, %Inh = 0

Simply: COc1ccc(NC(=O)Nc2ccc(C)c(-c3ccc(C(=O)Nc4ccncc4)cc3)c2)cc1 [GSK1398475] , FGFR2, %Inh = 0

====

system: PIK4CB; construct: gene PI4KB; settings: concentration: 1 μM, replicates: in singlicate; n = 1
recordedMetric: %Inh (%)
Value expressed in %; do not type the unit.

Solved cases below.
Fc1ccc(-c2ncn(CCCNCc3ccccc3)c2-c2ccncc2)cc1 | 24
Nc1n[nH]c2nnc(-c3ccccc3)cc12 | 8
N#Cc1ccc(Oc2ccc(Nc3ncnc4cc[nH]c34)cc2Cl)cc1 | 0

GET /value?item= Cc1cccc(-c2nc(Nc3ccc4[nH]nnc4c3)c3ccccc3n2)n1 &field=%Inh returns 0

GET /value?item= O=C(Nc1ccccc1F)NC1CCN(c2ccnc(Nc3ccc(F)cc3)n2)C1 (centres unmarked) &field=%Inh returns 100

GET /value?item= Cl.Cn1ccc(-c2cccc(Nc3ccnc4cc(-c5nccs5)ccc34)c2)n1 &field=%Inh returns 0

GET /value?item= CS(=O)(=O)CCNCc1ccc(-c2ccc3ncnc(Nc4ccc(OCc5ccccc5)c(Cl)c4)c3c2)o1.Cl &field=%Inh returns 8

GET /value?item= Cn1cc(-c2ccc3c(c2)CCN3C(=O)Cc2cccc(C(F)(F)F)c2)c2c(N)ncnc21 &field=%Inh returns 6

====

system: TXK; details: concentration: 1 μM, replicates: in singlicate; n = 1
recordedMetric: %Inh (%)
Value expressed in %; do not type the unit.

Solved cases below.
O=C(NCCCN1CCCC1=O)c1cnc(NCc2cc(Cl)ccc2Cl)nc1NC1CCNCC1 | 0
CC(=O)Nc1n[nH]c2ncc(-c3ccccc3)cc12 | 9
Cn1ccc2ncnc(Nc3ccc(Oc4cccc(Cl)c4)c(Cl)c3)c21 | 25
CS(=O)(=O)CCNCc1ccc(-c2ccc3ncnc(Nc4ccc(OCc5ccccc5)c(Cl)c4)c3c2)o1.Cl | 10

GET /value?item= Cl.c1ccc(Cn2ccc3cc(Nc4ncnc5ccccc45)ccc32)cc1 &field=%Inh returns 14

GET /value?item= Clc1cc(Nc2ncnc3cc[nH]c23)ccc1OCc1ccccn1 &field=%Inh returns 11

GET /value?item= Nc1nc(-c2cccnc2)c(-c2ccnc3ccccc23)s1 &field=%Inh returns 0

GET /value?item= OCCOCCn1ccc2ncnc(Nc3ccc(Oc4cccc(Cl)c4)c(Cl)c3)c21 &field=%Inh returns 0

GET /value?item= Cc1ccc(NC(=O)c2cccc(C#N)c2)cc1-c1ccc(C(=O)Nc2ccncc2)cc1 &field=%Inh returns 0

====

Catalogue of molecules with associated %Inh
system: LATS1; details: concentration: 1 μM, replicates: in singlicate; n = 1
Value expressed in %; do not type the unit.

Solved cases below.
CC(C)(C)c1ccc(-n2cnc3c(N)ncnc32)cc1 | 0
CSc1nn2c(=O)cc(N3CCOCC3)nc2n1Cc1cccc(Cl)c1Cl | 9
Oc1ccc2ncnc(Nc3ccc(OCc4ccccc4)cc3)c2c1 | 0
Cc1cc(N2CCC(NS(=O)(=O)c3ccc(F)cc3)CC2)nc(Nc2cccc(C#N)c2)n1.O=C(O)C(F)(F)F | 0
COC(=O)c1c(-c2ccccc2)c2cc(Cl)ccc2c(=O)n1Cc1ccc(S(C)(=O)=O)cc1 | 30

GET /value?item= O=C(NCCCN1CCCC1=O)c1cnc(NCc2cc(Cl)ccc2Cl)nc1NC1CCNCC1 &field=%Inh returns 0

GET /value?item= O=C(Nc1ccccc1)Nc1ccc(Oc2ccc3nccn3n2)cc1 &field=%Inh returns 0

GET /value?item= O=c1cc(N2CCOCC2)nc2n(Cc3cccc(Cl)c3)ccn12 &field=%Inh returns 0

GET /value?item= Nc1nc(-c2cccnc2)c(-c2ccnc3ccccc23)s1 &field=%Inh returns 0

====

tested on: TRKB; settings: concentration: 1 μM, replicates: in singlicate; n = 1
Would you mind labelling by %Inh? At or over 6% is rule met, under is rule not met.

CCCc1ccc(S(=O)(=O)NC2CCN(c3ccnc(Nc4ccc(OC)cc4)n3)C2)cc1 (stereo not drawn) | rule met
COc1cc2ncnc(Nc3ccc(OCc4ccccc4Br)c(Cl)c3)c2cc1OC.Cl | rule met
NC(=O)c1sc(-n2cnc3ccccc32)cc1OCc1ccccc1F | rule not met
CCc1nc(-c2cccc(N(C)S(=O)(=O)c3ccccc3)c2)c(-c2ccnc(Nc3ccc(N4CCN(C(C)=O)CC4)nc3)n2)s1 | rule not met
Clc1cccc(-c2nc(Nc3ccncc3)c3ccccc3n2)c1 | rule not met

Q: Decide: %Inh of FC(F)(F)c1ccc(-c2cc(-c3c[nH]nc3-c3ccccn3)ccn2)cc1 >= 6%?
A: rule not met

Q: Decide: %Inh of CC(=O)Nc1n[nH]c2ncc(-c3ccccc3)cc12 >= 6%?
A: rule met

====

system: ERK1; construct: gene MAPK3
recordedMetric: Kd

GET /value?item= O=C(Nc1ccccc1F)NC1CCN(c2ccnc(Nc3ccc(F)cc3)n2)C1 (stereo not shown) &field=Kd returns > 10 µM

====

tested on: DCAMKL3; construct: gene DCLK3; details: concentration: 1 μM, replicates: in singlicate; n = 1
recordedMetric: %Inh
Give the value; after it, write the unit.

Nc1nc(-c2cccnc2)c(-c2ccnc3ccccc23)s1 [GW684083] | 14%
Cl.Fc1ccccc1COc1ccc(Nc2ncnc3ccc(-c4nnc(C(F)(F)F)o4)cc23)cc1Cl [GW424170] | 7%

GET /value?item= CCc1nc(-c2cccc(C)c2)c(-c2ccnc(NC(=O)c3ccccc3)c2)s1 &field=%Inh returns 0%

GET /value?item= COc1ccc(-c2oc3ncnc(N)c3c2-c2ccc(OC)cc2)cc1 [SB-589132] &field=%Inh returns 36%

GET /value?item= Cc1ccc(NC(=O)c2cccc(C#N)c2)cc1-c1ccc(C(=O)Nc2ccncc2)cc1 [GSK1398463] &field=%Inh returns 0%

GET /value?item= CCn1c(-c2ccncc2)nc2cnccc21 [SB-735216] &field=%Inh returns 0%

GET /value?item= COc1cc2ncnc(Nc3ccc(OCc4ccccc4Br)c(Cl)c3)c2cc1OC.Cl [GI261590] &field=%Inh returns 21%

GET /value?item= Nc1nc(-c2ccc3c(N)n[nH]c3c2)cc(N2CCCCC2)n1 [GSK2228768] &field=%Inh returns 0%

GET /value?item= CCCc1ccc(S(=O)(=O)NC2CCN(c3ccnc(Nc4ccc(OC)cc4)n3)C2)cc1 (stereo not drawn) [GSK1379737] &field=%Inh returns 0%
